target.entity: T1, hIL-11R (Homo sapiens, UniProt Q14626)
T1 sequence (Q14626 23-422): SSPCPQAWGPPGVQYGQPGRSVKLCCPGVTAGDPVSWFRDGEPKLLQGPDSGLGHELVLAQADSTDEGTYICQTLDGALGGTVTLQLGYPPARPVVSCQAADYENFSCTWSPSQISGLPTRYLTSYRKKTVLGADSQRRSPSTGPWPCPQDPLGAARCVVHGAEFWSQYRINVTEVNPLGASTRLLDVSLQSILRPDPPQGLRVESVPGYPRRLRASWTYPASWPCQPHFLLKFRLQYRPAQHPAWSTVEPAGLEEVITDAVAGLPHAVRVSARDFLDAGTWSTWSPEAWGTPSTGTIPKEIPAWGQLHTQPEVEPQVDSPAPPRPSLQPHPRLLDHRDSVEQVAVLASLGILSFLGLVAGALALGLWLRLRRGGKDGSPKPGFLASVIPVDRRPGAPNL
assay.name: Alternate biolayer interferometry assay (AHC biosensors) ranking mAbs 16-32 against mAb5
Type: binding
assay.setup: compared to mAb5
measured.attribute: potency compared to mAb5 by more detailed kinetic measurements (in words)

>  <molecule>
mAb21: anti-IL-11Rα antibody, human IgG4 (S228P), kappa; VH SEQ ID NO: 233, VL SEQ ID NO: 234 (antibody, V domains shown, IgG4 S228P kappa constant regions; mAb21 VH Chain; mAb21 VL Chain) VH: EVQLLESGGGLVQPGGSLRLSCAASGFTFSHYSMTWVRQAPGKGLEWVSSIVPYGDLTQYADSVKGRFTISRDNSKNTLYLQMNSLRAEDTAVYYCAKGPGWGSFDLWGRGTLVTVSS VL: DIQMTQSPSSLSASVGDRVTITCQASQDINNYLNWYQQKPGKAPKLLIYDASNLQTGVPSRFSGSGSGTDFTFTISSLQPEDIATYYCQQHESQSPTFGPGTKVDIK

>  <assay.value>
further improved potency

$$$$
>  <molecule>
mAb29: anti-IL-11Rα antibody, human IgG4 (S228P), kappa; VH SEQ ID NO: 249, VL SEQ ID NO: 250 (antibody, V domains shown, IgG4 S228P kappa constant regions; mAb29 VH Chain; mAb29 VL Chain) VH: EVQLLESGGGLVQPGGSLRLSCAASGFTFSSYSMTWVRQAPGKGLEWVSSIVPYGDLTQYADSVKGRFTISRDNSKNTLYLQMNSLRAEDTAVYYCAKGPGWGSFDLWGRGTLVTVSS VL: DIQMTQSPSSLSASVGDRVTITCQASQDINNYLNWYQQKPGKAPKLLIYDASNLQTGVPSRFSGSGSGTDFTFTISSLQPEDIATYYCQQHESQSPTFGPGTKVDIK

>  <assay.value>
further improved potency

$$$$
>  <molecule>
mAb31: anti-IL-11Rα antibody, human IgG4 (S228P), kappa; VH SEQ ID NO: 253, VL SEQ ID NO: 254 (antibody, V domains shown, IgG4 S228P kappa constant regions; mAb31 VH Chain; mAb31 VL Chain) VH: EVQLLESGGGLVQPGGSLRLSCAASGFTFSVYSMTWVRQAPGKGLEWVSSIVPYGDLTQYADSVKGRFTISRDNSKNTLYLQMNSLRAEDTAVYYCAKGPGWGSFDLWGRGTLVTVSS VL: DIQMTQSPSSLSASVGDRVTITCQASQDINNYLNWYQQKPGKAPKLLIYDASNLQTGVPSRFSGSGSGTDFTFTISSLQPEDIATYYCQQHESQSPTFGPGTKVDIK

>  <assay.value>
further improved potency

$$$$
